# SYSTEM: recombinant human LTA4 hydrolase (rhLTA4H) (Homo sapiens, UniProt P09960)
# Construct: made in house; host or cells: Spodoptera frugiperda (Sf-9) cells, recombinant baculovirus (pFastBac1)
# Sequence (P09960 whole entry): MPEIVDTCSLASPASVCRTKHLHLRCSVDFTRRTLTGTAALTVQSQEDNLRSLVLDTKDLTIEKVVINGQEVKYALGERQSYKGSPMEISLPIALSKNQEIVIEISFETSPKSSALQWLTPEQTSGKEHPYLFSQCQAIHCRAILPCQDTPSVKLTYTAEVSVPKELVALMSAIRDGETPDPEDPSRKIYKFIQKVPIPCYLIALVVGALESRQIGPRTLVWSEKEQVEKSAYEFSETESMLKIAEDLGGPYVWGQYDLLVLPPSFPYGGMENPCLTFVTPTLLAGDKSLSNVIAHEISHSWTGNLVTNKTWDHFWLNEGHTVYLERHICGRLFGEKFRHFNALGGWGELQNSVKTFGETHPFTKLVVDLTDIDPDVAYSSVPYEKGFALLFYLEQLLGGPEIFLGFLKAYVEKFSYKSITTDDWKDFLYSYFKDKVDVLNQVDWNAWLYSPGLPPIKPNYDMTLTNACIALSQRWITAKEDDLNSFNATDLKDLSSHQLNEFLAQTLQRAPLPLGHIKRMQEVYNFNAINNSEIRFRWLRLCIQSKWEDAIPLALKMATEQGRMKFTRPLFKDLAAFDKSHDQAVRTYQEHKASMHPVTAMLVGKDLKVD
# EXPERIMENT NOTES: Recombinant human LTA4 hydrolase assay for LTA4 hydrolase inhibitor activity
# Assay type: biochemical
# SETTINGS: rhLTA4H, LTA4 substrate, LTB4 by immunoassay; single determination or average; read-out: IC50
QUANTITY KIND: IC50 (nM)

Observe how each entry below is paired with its result.
- MOLECULE: "CC(C)(O)C1CCN(Cc2ccc(Oc3nc4ncccc4s3)cc2)CC1"
  UNIT: "nM"
  TEST RESULT: 42
- MOLECULE: "c1cnc2nc(Oc3ccc(CN4CCCC4)cc3)sc2c1"
  UNIT: "nM"
  TEST RESULT: 2.1
- MOLECULE: "CC(=O)N1C[C@@H]2C[C@H]1CN2Cc1ccc(Oc2nc3cccnc3s2)cc1"
  UNIT: "nM"
  TEST RESULT: 220
- MOLECULE: "Cc1cnc2nc(Oc3ccc(CN4CCC(C(=O)N(C)C)CC4)cc3)sc2c1"
  UNIT: "nM"
  TEST RESULT: 26
- MOLECULE: "OCCN(CCOc1ccc(Oc2nc3cccnc3s2)cc1)CC1CC1"
  UNIT: "nM"
  TEST RESULT: 114
- MOLECULE: "CC(=O)N1[C@@H]2CC[C@H]1C[C@@H](NCc1ccc(Oc3nc4ncccc4s3)cc1)C2"
  UNIT: "nM"
  TEST RESULT: 18
- MOLECULE: "FC1CCN(Cc2ccc(Oc3nc4ncccc4s3)cc2)CC1"
  UNIT: "nM"
  TEST RESULT: 24
- MOLECULE: "O=C1CCCN1C1CCN(CCc2ccc(Oc3nc4cccnc4s3)cc2)CC1"
  UNIT: "nM"
  TEST RESULT: 280

[P] OC1(c2ccc(Cl)cc2)CCN(CCOc2ccc(Oc3nc4nccnc4s3)cc2)CC1
[Q] O=C(c1ccco1)N1CCN(CCOc2ccc(Oc3nc4ncc(Cl)cc4s3)cc2)CC1
**Query** Of P and Q , which shows the smaller IC50 value? Choose, then provide that item's label.
**Result** P
(P: 160 nM, Q: 252 nM)

[P] CC(=O)N1C[C@@H]2C[C@H]1CN2CCOc1ccc(Oc2nc3cccnc3s2)cc1
[Q] CN(CCN1CCCCC1)Cc1ccc(Oc2nc3ncccc3s2)cc1
[R] NC(=O)N1C[C@@H]2C[C@H]1CN2Cc1ccc(Oc2nc3ncc(Cl)cc3s2)cc1
[S] C[C@H]1CCCCN1Cc1ccc(Oc2nc3ncccc3s2)cc1
[T] c1cnc2nc(Oc3ccc(CCN4CCCC4)cc3)sc2c1
**Query** Ascending by IC50, please: list the molecules accordingly. Sort the labels as requested; that list is your answer.
**Result** S, T, R, P, Q

====

# SYSTEM: recombinant human LTA4 hydrolase (rhLTA4H) (Homo sapiens, UniProt P09960)
# Construct: made in house; host or cells: Spodoptera frugiperda (Sf-9) cells, recombinant baculovirus (pFastBac1)
# EXPERIMENT NOTES: Recombinant human LTA4 hydrolase assay for LTA4 hydrolase inhibitor activity
# Type: biochemical
# SETTINGS: rhLTA4H, LTA4 substrate, LTB4 by immunoassay; single determination or average; read-out: IC50
pIC50: −log10 of the molar value.
QUANTITY KIND: pIC50

- COMPOUND: "OC1(c2cccc(C(F)(F)F)c2)CCN(CCOc2ccc(Oc3nc4ncccc4s3)cc2)CC1"
  pIC50: 7.77
- COMPOUND: "O=C1CCCN1C1CCN(CCOc2ccc(Oc3nc4ccncc4s3)cc2)CC1"
  pIC50: 6.46
- COMPOUND: "c1cnc2nc(Oc3ccc(CNCCN4CCCCC4)cc3)sc2c1"
  pIC50: 7.41
- COMPOUND: "NC(=O)N[C@@H]1C[C@H]2CC[C@@H](C1)N2Cc1ccc(Oc2nc3ccncc3s2)cc1"
  pIC50: 6.43
- COMPOUND: "O=C(C1CC1)N1CCN(CCc2ccc(Oc3nc4ncc(Cl)cc4s3)cc2)CC1"
  pIC50: 6.44

[a] c1ccc(CC2CCN(CCOc3ccc(Oc4nc5ncccc5s4)cc3)CC2)cc1
[b] OC1(c2ccc(Cl)cc2)CCN(CCOc2ccc(Oc3nc4cccnc4s3)cc2)CC1
[c] O=C(NC1CCN(CCc2ccc(Oc3nc4ccncc4s3)cc2)CC1)C1CC1
[d] CCCN(CCc1ccc(Oc2nc3ncccc3s2)cc1)CC1CC1
[e] CCN(CC)Cc1ccc(Oc2nc3ncccc3s2)cc1
**Query** Sort low-to-high on pIC50, please. // respond by listing labels in the order requested
**Result** c, b, a, e, d
(c: 6.29, b: 6.59, a: 7.28, e: 8.18, d: 8.52)
